Data credit: patent US20150246025A1

# assay.explanation: Pharmacokinetic study in Wistar rats
# Type: in vivo
# run.conditions: rat, plasma, po; male wistar rats, 2 mg/kg orally, n = 6, Mean ± SD
quantity: half-life (h)

Example molecules with recorded half-life:
[
  {
    "molecule": "N[C@H]1C[C@@H](N2CC3=C(C2)CS(=O)(=O)C3)CO[C@@H]1c1cc(F)ccc1F [Compound 17]",
    "half-life, h": 32.5
  },
  {
    "molecule": "N[C@H]1C[C@@H](N2CC3COCC3C2)CO[C@@H]1c1cc(F)ccc1F (stereo partly shown) [Compound 3]",
    "half-life, h": 48.2
  }
]

a = CS(=O)(=O)N1CC2=C(CN([C@H]3CO[C@H](c4cc(F)ccc4F)[C@@H](N)C3)C2)C1 [Compound 8]
b = CS(=O)(=O)N1CC2CN([C@H]3CO[C@H](c4cc(F)ccc4F)[C@@H](N)C3)CC2C1 (stereo partly shown) [Compound 1]
Which one would you say has the larger half-life value: a , or b ? Use the label to indicate which entry you chose.
a
(a: 59.5 h, b: 33.3 h)

###

# assay.explanation: Pharmacokinetic study in Wistar rats
# Assay type: in vivo
# run.conditions: rat, plasma, po; male wistar rats, 2 mg/kg orally, n = 6, Mean ± SD
quantity: Cmax (ng/mL)

Example compounds with recorded Cmax:
[
  {
    "compound": "CS(=O)(=O)N1CC2=C(CN([C@H]3CO[C@H](c4cc(F)ccc4F)[C@@H](N)C3)C2)C1",
    "Cmax (ng/mL)": 459
  },
  {
    "compound": "N[C@H]1C[C@@H](N2CC3COCC3C2)CO[C@@H]1c1cc(F)ccc1F (stereo partly shown)",
    "Cmax (ng/mL)": 301
  }
]

1 = N[C@H]1C[C@@H](N2CC3=C(C2)CS(=O)(=O)C3)CO[C@@H]1c1cc(F)ccc1F
2 = CS(=O)(=O)N1CC2CN([C@H]3CO[C@H](c4cc(F)ccc4F)[C@@H](N)C3)CC2C1 (stereo partly shown)
Which one would you say has the larger Cmax value: 1 , or 2 ? Use the label to indicate which entry you chose.
1
(1: 419 ng/mL, 2: 148 ng/mL)

###

# Tested on: C57BL/6J mice
# assay.explanation: In vivo antihyperglycaemic/antidiabetic activity (OGTT), acute single dose 120-min time-course
# run.conditions: Mus musculus, 2 h; male C57BL/6J mice, acute single dose 0,3 mg/kg po, 120-min time-course, n = 6, Mean ± SEM; read-out: In vivo OGTT C57; % Glucose change
Listing of recorded change in vivo at 0.3 mg/kg by entry.
All answers are understood in %, so give the number only.

[
  {
    "molecule": "N[C@H]1C[C@@H](N2CC3=C(CN(C(=O)C(F)(F)F)C3)C2)CO[C@@H]1c1cc(F)ccc1F",
    "unit.label": "%",
    "observed.value": -30
  },
  {
    "molecule": "CS(=O)(=O)N1CC2CCN([C@H]3CO[C@H](c4cc(F)ccc4F)[C@@H](N)C3)CC2C1 (stereo partly drawn)",
    "unit.label": "%",
    "observed.value": -26.4
  },
  {
    "molecule": "CC(=O)N[C@H]1C[C@@H](N2CC3=C(CN(C(C)=O)C3)C2)CO[C@@H]1c1cc(F)ccc1F",
    "unit.label": "%",
    "observed.value": 8.6
  },
  {
    "molecule": "CCS(=O)(=O)N1CC2=C(CN([C@H]3CO[C@H](c4cc(F)ccc4F)[C@@H](N)C3)C2)C1",
    "unit.label": "%",
    "observed.value": -35
  },
  {
    "molecule": "N[C@H]1C[C@@H](N2CC3=C(C2)CN(S(=O)(=O)c2ccc(F)cc2)C3)CO[C@@H]1c1cc(F)ccc1F",
    "unit.label": "%",
    "observed.value": -16.8
  }
]

Find the recorded change in vivo at 0.3 mg/kg belonging to CS(=O)(=O)N1CC2CCN([C@H]3CO[C@H](c4cc(F)ccc4F)[C@@H](N)C3)C2C1 (stereo partly drawn) and report it.
-29.4

Find the recorded change in vivo at 0.3 mg/kg belonging to `N[C@H]1C[C@@H](N2CC3=C(CN(C(=O)C4CCCC4)C3)C2)CO[C@@H]1c1cc(F)ccc1F` and report it.
-12.2

Find the recorded change in vivo at 0.3 mg/kg belonging to N[C@H]1C[C@@H](N2CC3C(=O)N(C4CC4)C(=O)C3C2)CO[C@@H]1c1cc(F)ccc1F (stereo partly drawn) and report it.
-12.5

Find the recorded change in vivo at 0.3 mg/kg belonging to `N[C@H]1C[C@@H](N2CC3=C(CN(C(=O)C4CC4)C3)C2)CO[C@@H]1c1cc(F)ccc1F` and report it.
-25.1

Find the recorded change in vivo at 0.3 mg/kg belonging to CS(=O)(=O)N1CCC2CN([C@H]3CO[C@H](c4cc(F)ccc4F)[C@@H](N)C3)CC21 (stereo partly drawn) and report it.
-42

Find the recorded change in vivo at 0.3 mg/kg belonging to `N[C@H]1C[C@@H](N2CC3=C(CN(C(=O)C4CCCCC4)C3)C2)CO[C@@H]1c1cc(F)ccc1F` and report it.
-20.1

Find the recorded change in vivo at 0.3 mg/kg belonging to CS(=O)(=O)N1CC2CN([C@H]3CO[C@H](c4cc(F)ccc4F)[C@@H](N)C3)CC2C1 (stereo partly drawn) and report it.
-22.5

Find the recorded change in vivo at 0.3 mg/kg belonging to `CN(C)S(=O)(=O)N1CC2=C(CN([C@H]3CO[C@H](c4cc(F)ccc4F)[C@@H](N)C3)C2)C1` and report it.
-34.7

Find the recorded change in vivo at 0.3 mg/kg belonging to `N[C@H]1C[C@@H](N2CC3=C(C2)CN(S(=O)(=O)c2ccc(C(F)(F)F)cc2)C3)CO[C@@H]1c1cc(F)ccc1F` and report it.
-14

Find the recorded change in vivo at 0.3 mg/kg belonging to `CC(C)c1ccc(S(=O)(=O)N2CC3=C(CN([C@H]4CO[C@H](c5cc(F)ccc5F)[C@@H](N)C4)C3)C2)cc1` and report it.
-25.1
